Target: human recombinant muscarinic receptor M-3 (Homo sapiens, UniProt P20309)
Sequence (P20309 whole entry): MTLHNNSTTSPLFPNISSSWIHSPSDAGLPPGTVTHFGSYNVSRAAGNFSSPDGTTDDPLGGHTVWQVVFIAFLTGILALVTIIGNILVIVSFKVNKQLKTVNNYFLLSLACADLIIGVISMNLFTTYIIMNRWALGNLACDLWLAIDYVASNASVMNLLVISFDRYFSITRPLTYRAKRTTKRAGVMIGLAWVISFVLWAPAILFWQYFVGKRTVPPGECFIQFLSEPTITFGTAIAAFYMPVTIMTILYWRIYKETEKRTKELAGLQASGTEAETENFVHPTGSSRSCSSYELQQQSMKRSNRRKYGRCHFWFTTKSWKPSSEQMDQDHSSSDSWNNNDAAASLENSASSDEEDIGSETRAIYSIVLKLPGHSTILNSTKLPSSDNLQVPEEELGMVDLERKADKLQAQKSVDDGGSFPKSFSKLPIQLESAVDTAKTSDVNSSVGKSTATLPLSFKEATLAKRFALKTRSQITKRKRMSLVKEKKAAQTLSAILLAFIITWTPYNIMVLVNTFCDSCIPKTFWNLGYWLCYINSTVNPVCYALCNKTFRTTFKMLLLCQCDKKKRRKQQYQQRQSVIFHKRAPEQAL
Test: biochemical
reported_metric: Ki (pM)

>>> recorded_measurement("O=C(OC1CC2CCC(C1)[N+]21CCCC1)C(O)(c1ccccc1)c1ccccc1 (stereo not shown)")
501
